Numbers sourced from PubChem BioAssay.

# reported z-score; entries follow
assay: MELAS cybrid and Rieske KO viability enhancers – cell-based, MELAS cybrids, Rieske KO mouse fibroblasts, CellTiter-Glo, primary screen (AID 1508586); conditions: MELAS cybrid survival, low glucose, CellTiter-Glo 48 h; stronger effect = higher value;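 further: z relative to plate mean and SD of compound and empty wells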
Give the figure only, with no unit attached.

Previously resolved entries follow.
- MOLECULE: "COc1cc(Nc2ncc3c(n2)-c2ccc(Cl)cc2C(c2c(F)cccc2OC)=NC3)ccc1C(=O)O"
  OBSERVED: -0.56
- MOLECULE: "CC(C)n1c(/C=C/[C@H](O)C[C@H](O)CC(=O)O)c(-c2ccc(F)cc2)c2ccccc21"
  OBSERVED: -2.58
- MOLECULE: "CNCCC(Oc1cccc2ccccc12)c1cccs1 (stereo not given)"
  OBSERVED: -0.107

Enquiry: State its z-score for this molecule: CN1CCN(c2nc(C3=C(c4c[nH]c5ccccc45)C(=O)NC3=O)c3ccccc3n2)CC1
Return: -0.37

Enquiry: State its z-score for this molecule: CC(C)=CC[C@@H](O)C1=CC(=O)c2c(O)ccc(O)c2C1=O
Return: -1.24

====

assay: drug combination growth inhibition, ovarian cancer – cell-based, oncology-focused library, rucaparib conditional, profiling panel (AID 1508598); settings: patient-derived ovarian cancer cells, CellTiter-Glo viability, 144 h; at 0.000305 µM; OCI-C5x cells; without rucaparib
Activity calls are given as the source filed them.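 Rule for the calls: active = normalized viability below 100% at a tested concentration; inactive = the rest.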
In this exercise, the only acceptable responses are T = active, F = inactive

The examples below pair each entry with its known result.
- COMPOUND: "Cc1ccc(NC(=O)c2cccc(C(C)(C)C#N)c2)cc1Nc1ccc2ncn(C)c(=O)c2c1"
  LABEL_VALUE: "F"
- COMPOUND: "Cc1ccc(S(=O)(=O)Nc2nc3ccccc3nc2Nc2ccc3nsnc3c2)cc1"
  LABEL_VALUE: "F"
- COMPOUND: "Cc1cccc(-c2nn3c(c2-c2ccnc4ccc(C(N)=O)cc24)CCC3)n1"
  LABEL_VALUE: "F"
- COMPOUND: "CCOc1ccn(-c2ccc(F)cc2)c(=O)c1C(=O)Nc1ccc(Oc2ccnc(N)c2Cl)c(F)c1"
  LABEL_VALUE: "F"
- COMPOUND: "O=C(Cc1ccc(-c2ccc(OCCN3CCOCC3)cc2)cn1)NCc1ccccc1"
  LABEL_VALUE: "F"

Enquiry: Which outcome was assigned to COc1cc2c(Oc3ccc4[nH]c(C)cc4c3F)ncnc2cc1OCCCN1CCCC1 in this test?
Return: F

Enquiry: Which outcome was assigned to OCCn1cc(-c2cnc3nnn(Cc4ccc5ncccc5c4)c3n2)cn1 in this test?
Return: F

Enquiry: Which outcome was assigned to CC(C)[C@H](C(=O)Nc1ccc(C(=O)NO)cc1)c1ccccc1 in this test?
Return: F

Enquiry: Which outcome was assigned to CN1CCN(c2ccc3nc(-c4c(N)c5c(F)cccc5[nH]c4=O)[nH]c3c2)CC1 in this test?
Return: F

Enquiry: Which outcome was assigned to Nc1ccccc1NC(=O)c1ccc(CNc2nccc(-c3cccnc3)n2)cc1 in this test?
Return: F

Enquiry: Which outcome was assigned to Cn1cnc2c(F)c(Nc3ccc(Br)cc3Cl)c(C(=O)NOCCO)cc21 in this test?
Return: F

Enquiry: Which outcome was assigned to COc1ccc(-c2ccc3c(N4CCOCC4)nc(N4C[C@@H](C)O[C@@H](C)C4)nc3n2)cc1CO in this test?
Return: F

Enquiry: Which outcome was assigned to Cn1c(=O)c(F)c(Nc2ccc(I)cc2F)c2c(=O)n(C[C@@H](O)CO)cnc21 in this test?
Return: F

Enquiry: Which outcome was assigned to CC(C)CC(=O)Nc1n[nH]c2c1CN(C(=O)C1CCN(C)CC1)C2(C)C in this test?
Return: F

Enquiry: Which outcome was assigned to COc1ncc(-c2ccc3nccc(-c4ccnnc4)c3c2)cc1NS(=O)(=O)c1ccc(F)cc1F in this test?
Return: F

Enquiry: Which outcome was assigned to Cc1ccc(C(=O)Nc2ccc(CN3CCN(C)CC3)c(C(F)(F)F)c2)cc1C#Cc1cnc2cccnn12 in this test?
Return: F

====

experiment: growth inhibition, single agent or in combination, cell-based, chromothripsis tumors, cisplatin or BGB combos (AID 1671449); settings: LFS_MB_P medulloblastoma cells, measured here: combination with BGB IC40, at 0.005 µM;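 further: cells exposed for 96 hours; 0% = vehicle DMSO and 100% = killing by high DMSO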
ATTRIBUTE_MEASURED: inhibition (%)
Respond with the bare value in %.

- CHEMICAL_SMILES: "Nc1nc(OCc2cc(Br)cs2)c2[nH]cnc2n1"
  UNITS_SYMBOL: "%"
  inhibition: -17.9

Enquiry: State its inhibition for this molecule: COc1cc2ncnc(-n3nc(-c4ccccn4)nc3N)c2cc1OC
Return: -12

Enquiry: State its inhibition for this molecule: C[C@]12CCCN1CC1=NNC(=O)c3cc(F)cc4[nH]c2c1c34
Return: -28.9

Enquiry: State its inhibition for this molecule: CC(C)OC(=O)[C@H](C)N[P@](=O)(OC[C@H]1O[C@@H](n2ccc(=O)[nH]c2=O)[C@](C)(F)[C@@H]1O)Oc1ccccc1
Return: -29.9

Enquiry: State its inhibition for this molecule: O=C(O)CO.[NH2-].[NH2-].[Pt+2]
Return: -55.5

====

assay: viability loss in pontine glioma line – cell-based, SU-DIPG-XXV, MIPE5.0, CellTiter-Glo, qHTS, dose response (AID 1347065); details: CellTiter-Glo ATP luminescence;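 further: cells exposed to compound for 48 hours before ATP readout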
Inconclusive results are not listed. Calls of active or inactive are those of the source. No cut-off is given here; in the data, nearly all actives have AC50 up to about 26 µM.
In this exercise, the only acceptable responses are Y = active, N = inactive

The examples below pair each entry with its known result.
- COMPOUND: "C[C@@H]1C(=O)OC2[C@H](O)[C@]34[C@H]5C[C@@H](C(C)(C)C)[C@]36[C@@H](OC(=O)[C@@H]6O)O[C@@]4(C(=O)O5)[C@]21O (stereo partly specified)"
  LABEL_VALUE: "N"
- COMPOUND: "FC(F)(F)c1ccc(CNc2ccc(Cc3c[nH]c4ncccc34)cn2)cc1"
  LABEL_VALUE: "Y"
- COMPOUND: "Cc1ccc(C(N)=O)cc1Nc1nccc(-c2cn(C(C)C)c3cnccc23)n1"
  LABEL_VALUE: "Y"
- COMPOUND: "CCS(=O)(=O)Nc1ccc(Oc2ccc(F)cc2F)c(-c2cn(C)c(=O)c3[nH]ccc23)c1"
  LABEL_VALUE: "Y"
- COMPOUND: "Cc1nc(C)c(CN2CCN(C(c3ccc(F)cc3)c3ccc(F)cc3)CC2)nc1C"
  LABEL_VALUE: "Y"
- COMPOUND: "COc1cc2c(cc1O)CCN[C@]21CS[C@@H]2c3c(OC(C)=O)c(C)c4c(c3[C@H](COC1=O)N1[C@@H]2[C@H]2c3c(cc(C)c(OC)c3O)C[C@@H]([C@@H]1O)N2C)OCO4"
  LABEL_VALUE: "Y"
- COMPOUND: "COc1ccc(S(=O)(=O)NCc2ccc(C(=O)NCCc3ccc(Cl)cn3)cc2)cc1"
  LABEL_VALUE: "N"
- COMPOUND: "CC1(C)CC[C@]2(C(=O)O)CC[C@]3(C)C(=CC[C@@H]4[C@@]5(C)C[C@@H](O)[C@H](O)C(C)(C)[C@@H]5CC[C@]43C)[C@@H]2C1"
  LABEL_VALUE: "Y"
- COMPOUND: "COc1cc(Nc2ncc(F)c(Nc3ccc4c(n3)N(COP(=O)(O)O)C(=O)C(C)(C)O4)n2)cc(OC)c1OC"
  LABEL_VALUE: "Y"
- COMPOUND: "CNc1nc(C)nc(N[C@H]2CCC[C@@H](C(=O)NCc3ccc(C#N)cc3C(F)(F)F)C2)n1"
  LABEL_VALUE: "N"

Enquiry: Which outcome was assigned to CCC[C@H](Nc1nc(-c2ccc(NC(=O)NCC)c(OC)c2)ncc1C)c1cccnc1 in this test?
Return: Y

Enquiry: Which outcome was assigned to CC(C)(C)c1cc(NC(=O)Nc2ccc(-c3cn4c(n3)sc3cc(OCCN5CCOCC5)ccc34)cc2)no1 in this test?
Return: Y

====

# reported viability; entries follow
test: drug combination growth inhibition, ovarian cancer – cell-based, oncology-focused library, rucaparib conditional, profiling panel (AID 1508598); settings: patient-derived ovarian cancer cells, CellTiter-Glo viability, 144 h; at 0.00488 µM; OCI-C5x cells; without rucaparib; stronger effect = lower value
Respond with the bare value in %.

Previously resolved entries follow.
- COMPOUND: "Cc1nc(N)sc1-c1ccnc(Nc2ccc(N3CCOCC3)cc2)n1"
  OBSERVED: 112
- COMPOUND: "CC(C)(C)c1cc(NC(=O)Nc2ccc(-c3cn4c(n3)sc3cc(OCCN5CCOCC5)ccc34)cc2)no1"
  OBSERVED: 88.6
- COMPOUND: "C=C(c1ccc(C(=O)O)cc1)c1cc2c(cc1C)C(C)(C)CCC2(C)C"
  OBSERVED: 120
- COMPOUND: "Cc1ccc([C@@H]2O[C@H](CO)[C@@H](O)[C@H](O)[C@H]2O)cc1Cc1ccc(-c2ccc(F)cc2)s1"
  OBSERVED: 118
- COMPOUND: "CC(C)(C)c1cnc(CSc2cnc(NC(=O)C3CCNCC3)s2)o1"
  OBSERVED: 103
- COMPOUND: "C=CC(=O)Nc1cc(Nc2nccc(-c3cn(C)c4ccccc34)n2)c(OC)cc1N(C)CCN(C)C"
  OBSERVED: 120

Enquiry: State its viability for this compound: Cc1ccc2c(=O)c3cccc(CC(=O)O)c3oc2c1C
Return: 116

Enquiry: State its viability for this compound: O=C(O)CCC1CCC(c2cc(F)ccc2F)(S(=O)(=O)c2ccc(Cl)cc2)CC1 (centres undefined)
Return: 120

Enquiry: State its viability for this compound: Nc1ccc(-c2ccc3ncc4ccc(=O)n(-c5cccc(C(F)(F)F)c5)c4c3c2)cn1
Return: 83.6
